Exercise: state measured % Inhibition 2.5 uM for each of the molecules provided.
- measurement-target: UniProt Q03405
- experimental-setup: 2500.0
Square brackets hold non-standard residues; d marks the D form. Peptide text beside a SMILES is read from it.
I only need the number, in %, no unit after it.

Per the records, this molecule ( CC(C)C[C@H](NC(=O)[C@H](CCCCN)NC(=O)[C@H](Cc1ccccc1)NC(=O)[C@H](Cc1ccccc1)NC(=O)[C@H](CCC(=O)O)NC(=O)[C@H](C)N)C(=O)NCC(=O)N1CCC[C@H]1C(=O)N[C@H](CC(N)=O)C(=O)NCC(=O)N[C@@H](Cc1ccc(O)cc1)C(=O)N[C@H](C(=O)N[C@@H](Cc1ccc(O)cc1)C(=O)N[C@@H](CC(C)C)C(=O)N[C@@H](Cc1c[nH]cn1)C(=O)N[C@@H](CO)C(=O)N[C@@H](C)C(N)=O)C(C)C [Analog 89] (H-AEFFKLGP[dN]GYVYLHSA-NH2) ) has % Inhibition 2.5 uM equal to 15

# % Inhibition 2.5 uM of CC(C)C[C@H](NC(=O)[C@H](CCCCN)NC(=O)[C@H](Cc1ccccc1)NC(=O)[C@H](Cc1ccccc1)NC(=O)[C@H](CCC(=O)O)NC(=O)[C@H](C)N)C(=O)NCC(=O)N1CCC[C@H]1C(=O)N[C@@H](CC(N)=O)C(=O)NCC(=O)N[C@@H](Cc1ccc(O)cc1)C(=O)N[C@H](C(=O)N[C@H](Cc1ccc(O)cc1)C(=O)N[C@@H](CC(C)C)C(=O)N[C@@H](Cc1c[nH]cn1)C(=O)N[C@@H](CO)C(=O)N[C@@H](C)C(N)=O)C(C)C [Analog 92] (H-AEFFKLGPNGYV[dY]LHSA-NH2) = 8.5

For record CC(C)C[C@H](NC(=O)[C@H](CCCCN)NC(=O)[C@H](Cc1ccccc1)NC(=O)[C@H](Cc1ccccc1)NC(=O)[C@@H](CCC(=O)O)NC(=O)[C@H](C)N)C(=O)NCC(=O)N1CCC[C@H]1C(=O)N[C@@H](CC(N)=O)C(=O)NCC(=O)N[C@@H](Cc1ccc(O)cc1)C(=O)N[C@H](C(=O)N[C@@H](Cc1ccc(O)cc1)C(=O)N[C@@H](CC(C)C)C(=O)N[C@@H](Cc1c[nH]cn1)C(=O)N[C@@H](CO)C(=O)N[C@@H](C)C(N)=O)C(C)C [Analog 83] (H-A[dE]FFKLGPNGYVYLHSA-NH2) the listed % Inhibition 2.5 uM is 44

###

- measurement-target: soluble uPAR (Homo sapiens)
- Assay type: binding
- Set-up: sUPAR, soluble truncated form of the urokinase receptor; made in house; host or cells: baculovirus-infected Sf9 insect cells
- experimental-setup: 2500.0
- Protocol: Streptavidin, 100 μl (0.1 mg/ml) in 50 mM Na2CO3, pH 9.6, was added to MaxiSorp wells (Nunc), incubated overnight at 4 C, and then washed with PBS/BSA. […] After 15 minutes, the urea eluate was brought to neutral pH by addition of 2M Tris base and the bacteriophage titers of input stocks and elutions measured by plaque formation assay. Results were expressed as the percent of input bacteriophage which bind to the wells. […] The absorbance at 450 nm was then measured in a 96 well plate reader. […]
Square brackets hold non-standard residues; d marks the D form. Peptide text beside a SMILES is read from it. 2Nal = N[C@@H](Cc1ccc2ccccc2c1)C(=O)O
quantity-measured: % Inhibition 2.5 uM (%)
Kindly answer with a numeric value in %, unit omitted.

The compound CSCC[C@H](NC(=O)[C@H](Cc1ccc(O)cc1)NC(=O)CNC(=O)[C@H](CC(C)C)NC(=O)[C@H](CO)NC(=O)[C@H](CC(C)C)NC(=O)[C@H](Cc1c[nH]cn1)NC(=O)[C@H](Cc1c[nH]cn1)NC(=O)[C@H](Cc1ccc2ccccc2c1)NC(=O)[C@@H](NC(=O)[C@H](CO)NC(=O)[C@H](CCC(=O)O)NC(=O)[C@H](C)N)[C@@H](C)O)C(=O)N[C@@H](Cc1ccc(O)cc1)C(=O)N[C@H](C(=O)N[C@@H](CC(C)C)C(=O)N[C@@H](CC(N)=O)C(N)=O)[C@@H](C)O [Analog 36] (H-AEST[2Nal]HHLSLGYMYTLN-NH2) , when measured on soluble uPAR (Homo sapiens), yielded % Inhibition 2.5 uM of 61

Simply: CSCC[C@H](NC(=O)[C@H](Cc1ccc(O)cc1)NC(=O)CNC(=O)[C@H](CC(C)C)NC(=O)[C@@H](CO)NC(=O)[C@H](CC(C)C)NC(=O)[C@H](Cc1c[nH]cn1)NC(=O)[C@H](Cc1c[nH]cn1)NC(=O)[C@H](Cc1ccc(O)cc1)NC(=O)[C@@H](NC(=O)[C@H](CO)NC(=O)[C@H](CCC(=O)O)NC(=O)[C@H](C)N)[C@@H](C)O)C(=O)N[C@@H](Cc1ccc(O)cc1)C(=O)N[C@H](C(=O)N[C@@H](CC(C)C)C(=O)N[C@@H](CC(N)=O)C(N)=O)[C@@H](C)O [Analog 54] (H-AESTYHHL[dS]LGYMYTLN-NH2) , soluble uPAR (Homo sapiens), % Inhibition 2.5 uM = 73

% Inhibition 2.5 uM of CSCC[C@H](NC(=O)[C@H](Cc1ccc(O)cc1)NC(=O)CNC(=O)[C@H](CC(C)C)NC(=O)[C@H](CO)NC(=O)[C@H](CC(C)C)NC(=O)[C@H](Cc1c[nH]cn1)NC(=O)[C@H](Cc1c[nH]cn1)NC(=O)[C@H](Cc1ccc(O)cc1)NC(=O)[C@@H](NC(=O)[C@H](CO)NC(=O)[C@H](CCC(=O)O)NC(=O)[C@H](C)N)[C@@H](C)O)C(=O)N[C@@H](Cc1ccc(O)cc1)C(=O)N[C@H](C(=O)N[C@@H](CC(C)C)C(=O)N[C@H](CC(N)=O)C(N)=O)[C@@H](C)O [Analog 61] (H-AESTYHHLSLGYMYTL[dN]-NH2) , assay on soluble uPAR (Homo sapiens), is 32

# lookup: CSCC[C@H](NC(=O)[C@H](Cc1ccc(O)cc1)NC(=O)CNC(=O)[C@H](CC(C)C)NC(=O)[C@H](CO)NC(=O)[C@H](CC(C)C)NC(=O)[C@H](Cc1c[nH]cn1)NC(=O)[C@H](Cc1c[nH]cn1)NC(=O)[C@H](Cc1ccc(O)cc1)NC(=O)[C@@H](NC(=O)[C@H](CO)NC(=O)[C@H](CCC(=O)O)NC(=O)[C@@H](C)N)[C@@H](C)O)C(=O)N[C@@H](Cc1ccc(O)cc1)C(=O)N[C@H](C(=O)N[C@@H](CC(C)C)C(=O)N[C@@H](CC(N)=O)C(N)=O)[C@@H](C)O [Analog 46] (H-[dA]ESTYHHLSLGYMYTLN-NH2) on soluble uPAR (Homo sapiens), % Inhibition 2.5 uM = 41

###

- measurement-target: soluble uPAR (Homo sapiens, UniProt Q03405)
- Sequence (Q03405 23-305 limits assumed): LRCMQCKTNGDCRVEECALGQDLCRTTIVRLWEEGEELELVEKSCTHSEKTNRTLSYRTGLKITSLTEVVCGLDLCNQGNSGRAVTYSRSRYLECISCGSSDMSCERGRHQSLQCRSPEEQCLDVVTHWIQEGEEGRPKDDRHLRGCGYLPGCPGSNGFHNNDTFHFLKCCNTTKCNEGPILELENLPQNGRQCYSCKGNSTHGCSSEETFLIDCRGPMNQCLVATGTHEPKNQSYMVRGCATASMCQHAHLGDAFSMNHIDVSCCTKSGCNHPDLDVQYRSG
- Type: binding
- Design: sUPAR, soluble truncated form of the urokinase receptor; made in house; host or cells: baculovirus-infected Sf9 insect cells
- experimental-setup: 5000.0
Square brackets hold non-standard residues; d marks the D form. Peptide text beside a SMILES is read from it. 2Nal = N[C@@H](Cc1ccc2ccccc2c1)C(=O)O
Binary classification by % Inhibition 5 uM, with 60% as an inclusive lower bound for Met; all other cases are Not met.

Check if % Inhibition 5 uM >= 60% (inclusive). Item: CSCC[C@H](NC(=O)[C@H](Cc1ccc(O)cc1)NC(=O)CNC(=O)[C@H](CC(C)C)NC(=O)[C@H](CO)NC(=O)[C@H](CC(C)C)NC(=O)[C@H](Cc1c[nH]cn1)NC(=O)[C@H](Cc1c[nH]cn1)NC(=O)[C@H](Cc1ccc(O)cc1)NC(=O)[C@@H](NC(=O)[C@H](CO)NC(=O)[C@H](CCC(=O)O)NC(=O)[C@H](C)N)[C@@H](C)O)C(=O)N[C@@H](Cc1ccc(O)cc1)C(=O)N[C@H](C(=O)N[C@H](CC(C)C)C(=O)N[C@@H](CC(N)=O)C(N)=O)[C@@H](C)O [Analog 60] (H-AESTYHHLSLGYMYT[dL]N-NH2)
Met

Would you say CSCC[C@H](NC(=O)[C@H](Cc1ccc(O)cc1)NC(=O)CNC(=O)[C@H](CC(C)C)NC(=O)[C@H](CO)NC(=O)[C@H](CC(C)C)NC(=O)[C@H](Cc1c[nH]cn1)NC(=O)[C@H](Cc1c[nH]cn1)NC(=O)[C@H](Cc1ccc(O)cc1)NC(=O)[C@@H](NC(=O)[C@H](CO)NC(=O)[C@H](CCC(=O)O)NC(=O)[C@H](C)N)[C@@H](C)O)C(=O)N[C@@H](Cc1ccc(O)cc1)C(=O)N[C@H](C(=O)N[C@@H](CC(C)C)C(=O)N[C@H](CC(N)=O)C(N)=O)[C@@H](C)O [Analog 61] (H-AESTYHHLSLGYMYTL[dN]-NH2) shows % Inhibition 5 uM at minimum 60%?
Not met

Is the recorded value of % Inhibition 5 uM equal to or greater than 60% for this compound? CSCC[C@H](NC(=O)[C@H](Cc1ccc(O)cc1)NC(=O)CNC(=O)[C@@H](CC(C)C)NC(=O)[C@H](CO)NC(=O)[C@H](CC(C)C)NC(=O)[C@H](Cc1c[nH]cn1)NC(=O)[C@H](Cc1c[nH]cn1)NC(=O)[C@H](Cc1ccc(O)cc1)NC(=O)[C@@H](NC(=O)[C@H](CO)NC(=O)[C@H](CCC(=O)O)NC(=O)[C@H](C)N)[C@@H](C)O)C(=O)N[C@@H](Cc1ccc(O)cc1)C(=O)N[C@H](C(=O)N[C@@H](CC(C)C)C(=O)N[C@@H](CC(N)=O)C(N)=O)[C@@H](C)O [Analog 55] (H-AESTYHHLS[dL]GYMYTLN-NH2)
Met

Record CSCC[C@H](NC(=O)[C@H](Cc1ccc(O)cc1)NC(=O)CNC(=O)[C@H](CC(C)C)NC(=O)[C@@H](CO)NC(=O)[C@H](CC(C)C)NC(=O)[C@H](Cc1c[nH]cn1)NC(=O)[C@H](Cc1c[nH]cn1)NC(=O)[C@H](Cc1ccc(O)cc1)NC(=O)[C@@H](NC(=O)[C@H](CO)NC(=O)[C@H](CCC(=O)O)NC(=O)[C@H](C)N)[C@@H](C)O)C(=O)N[C@@H](Cc1ccc(O)cc1)C(=O)N[C@H](C(=O)N[C@@H](CC(C)C)C(=O)N[C@@H](CC(N)=O)C(N)=O)[C@@H](C)O [Analog 54] (H-AESTYHHL[dS]LGYMYTLN-NH2) ; criterion: % Inhibition 5 uM no lower than 60%. Met?
Met

# bool: % Inhibition 5 uM of CSCC[C@H](NC(=O)[C@H](Cc1ccc(O)cc1)NC(=O)CNC(=O)[C@H](CC(C)C)NC(=O)[C@H](CO)NC(=O)[C@H](CC(C)C)NC(=O)[C@H](Cc1c[nH]cn1)NC(=O)[C@H](Cc1c[nH]cn1)NC(=O)[C@H](Cc1ccc(O)cc1)NC(=O)[C@@H](NC(=O)[C@H](CO)NC(=O)[C@H](CCC(=O)O)NC(=O)[C@@H](C)N)[C@@H](C)O)C(=O)N[C@@H](Cc1ccc(O)cc1)C(=O)N[C@H](C(=O)N[C@@H](CC(C)C)C(=O)N[C@@H](CC(N)=O)C(N)=O)[C@@H](C)O [Analog 46] (H-[dA]ESTYHHLSLGYMYTLN-NH2) >= 60%
Not met

Confirm if % Inhibition 5 uM reported for the compound CSCC[C@H](NC(=O)[C@H](Cc1ccc(O)cc1)NC(=O)CNC(=O)[C@H](CC(C)C)NC(=O)[C@H](CO)NC(=O)[C@H](CC(C)C)NC(=O)[C@H](Cc1c[nH]cn1)NC(=O)[C@H](Cc1c[nH]cn1)NC(=O)[C@H](Cc1ccc2ccccc2c1)NC(=O)[C@@H](NC(=O)[C@H](CO)NC(=O)[C@H](CCC(=O)O)NC(=O)[C@H](C)N)[C@@H](C)O)C(=O)N[C@@H](Cc1ccc(O)cc1)C(=O)N[C@H](C(=O)N[C@@H](CC(C)C)C(=O)N[C@@H](CC(N)=O)C(N)=O)[C@@H](C)O [Analog 36] (H-AEST[2Nal]HHLSLGYMYTLN-NH2) is 60% or above.
Met

From: patent US7094752B2
